Catalogue of CF PR/CF MR values
# System name: progesterone receptor (Homo sapiens (Human), UniProt P06401)
# Sequence (P06401 whole entry, species assumed): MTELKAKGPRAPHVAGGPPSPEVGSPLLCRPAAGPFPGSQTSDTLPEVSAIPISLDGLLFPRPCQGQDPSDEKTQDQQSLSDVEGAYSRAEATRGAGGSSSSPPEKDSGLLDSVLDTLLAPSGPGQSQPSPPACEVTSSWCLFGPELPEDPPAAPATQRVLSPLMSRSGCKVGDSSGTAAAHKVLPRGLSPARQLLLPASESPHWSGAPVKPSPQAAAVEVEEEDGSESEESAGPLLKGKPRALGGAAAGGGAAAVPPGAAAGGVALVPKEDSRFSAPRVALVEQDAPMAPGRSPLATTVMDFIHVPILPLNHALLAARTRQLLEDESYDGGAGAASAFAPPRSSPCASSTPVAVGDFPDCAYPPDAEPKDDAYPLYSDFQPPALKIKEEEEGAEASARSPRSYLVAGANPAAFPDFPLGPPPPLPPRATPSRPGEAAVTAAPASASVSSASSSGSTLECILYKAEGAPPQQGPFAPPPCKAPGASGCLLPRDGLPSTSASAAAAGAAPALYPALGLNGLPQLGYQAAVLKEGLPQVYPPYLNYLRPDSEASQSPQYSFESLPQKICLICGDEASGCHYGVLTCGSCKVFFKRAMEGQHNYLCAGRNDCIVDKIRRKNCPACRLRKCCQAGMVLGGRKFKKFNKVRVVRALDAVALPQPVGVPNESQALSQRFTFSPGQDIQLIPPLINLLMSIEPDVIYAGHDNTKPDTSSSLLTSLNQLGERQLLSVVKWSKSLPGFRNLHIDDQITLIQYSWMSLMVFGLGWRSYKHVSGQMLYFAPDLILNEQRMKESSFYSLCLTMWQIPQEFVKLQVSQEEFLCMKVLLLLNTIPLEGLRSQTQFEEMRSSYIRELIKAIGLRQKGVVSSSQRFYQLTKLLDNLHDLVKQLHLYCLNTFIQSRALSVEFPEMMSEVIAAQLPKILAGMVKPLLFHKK
# Test: Progesterone receptor binding test
# Experimental conditions: ratio of competition factors CF(PR) and CF(MR)
Reply with just the number.

Solved cases below.
[
  {
    "Compound": "C=C[C@@H]1CC2=CC(=O)CC[C@@H]2[C@H]2CC[C@@]3(CC)[C@@H](CC[C@@]34C=CCO4)[C@@H]21",
    "Assay metric": "CF PR/CF MR",
    "Value reported": 4.80
  },
  {
    "Compound": "CC[C@@H]1CC2=CC(=O)CC[C@@H]2[C@H]2CC[C@@]3(C)[C@@H](CC[C@@]34C=CCO4)[C@H]12",
    "Assay metric": "CF PR/CF MR",
    "Value reported": 2.87
  },
  {
    "Compound": "C=C[C@@H]1CC2=CC(=O)CC[C@@H]2[C@H]2CC[C@@]3(C)[C@@H](CC[C@@]34C=CCO4)[C@@H]21",
    "Assay metric": "CF PR/CF MR",
    "Value reported": 0.95
  },
  {
    "Compound": "CC[C@@H]1CC2=CC(=O)CC[C@@H]2[C@H]2CC[C@@]3(CC)[C@@H](CC[C@@]34C=CCO4)[C@H]12",
    "Assay metric": "CF PR/CF MR",
    "Value reported": 6.39
  }
]

Which value of CF PR/CF MR has been reported for CC[C@]12CC[C@H]3[C@@H](CCC4=CC(=O)CC[C@@H]43)[C@@H]1CC[C@@]21C=CCO1 (stereo in doubt) in the records?
0.12

Lookup CC[C@]12CC[C@H]3[C@@H](C[C@@H](CO)C4=CC(=O)CC[C@@H]43)[C@@H]1CC[C@@]21C=CCO1
40.27

Lookup CC[C@]12CC[C@H]3[C@@H]([C@H](C)CC4=CC(=O)CC[C@@H]43)[C@@H]1CC[C@@]21C=CCO1
2.04

These entries and their values trace back to patent US9034856B2.
